- system_tested: Nuclear receptor coactivator 1 (Homo sapiens)
- assay_overview: SRC1 coactivator transcriptional activity inhibitors, confirmation, cell-based, luminescence, quadruplicate (AID 588820);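 note: 0% = DMSO wells and 100% = gossypol 36 µM treated wells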
- run_parameters: HEK293 GAL4-SRC1 luciferase reporter, at 3.6 µM, active compounds read high
For each of the compounds below, state its inhibition.
Write the number in % without appending the unit.

Provide value of inhibition for this record tested with Nuclear receptor coactivator 1 (Homo sapiens): Cc1ccc(-c2cc(C(=O)NCCCN3CCOCC3)no2)cc1 8.12

Provide value of inhibition for this record tested with Nuclear receptor coactivator 1 (Homo sapiens): CCOc1ccc(NC(=O)CN(C)C(=O)C2CCN(c3ncnc4sc(C)c(C)c34)CC2)cc1OCC 0.38

Provide value of inhibition for this record tested with Nuclear receptor coactivator 1 (Homo sapiens): CCN(CC(=O)Nc1ccccc1C(F)(F)F)C(=O)c1ccc2[nH]c3c(c2c1)CC(C)CC3 (centres undefined) -11.7

Provide value of inhibition for this record tested with Nuclear receptor coactivator 1 (Homo sapiens): COC(CN(C(=O)CCl)C(C(=O)NC1CCCCC1)c1ccccc1C)OC (centres undefined) 26.2

Provide value of inhibition for this record tested with Nuclear receptor coactivator 1 (Homo sapiens): CCn1c(Oc2ccccc2F)nc2c1c(=O)n(C)c(=O)n2C 64.4

Provide value of inhibition for this record tested with Nuclear receptor coactivator 1 (Homo sapiens): CC[n+]1ccccc1/C=C/c1ccc(N(C)C)cc1 15.4

Provide value of inhibition for this record tested with Nuclear receptor coactivator 1 (Homo sapiens): Cc1nnc(-c2ccccc2)c(=O)n1/N=C/c1c(O)ccc2ccccc12 57

Provide value of inhibition for this record tested with Nuclear receptor coactivator 1 (Homo sapiens): COc1cc(C=C2CCCC(=Cc3ccc(OCC4CO4)c(OC)c3)C2=O)ccc1OCC1CO1 (centres undefined) -119

Provide value of inhibition for this record tested with Nuclear receptor coactivator 1 (Homo sapiens): Cc1ccc(NC(=O)c2cc(C)n(-c3ccccc3)c2C)cc1 1.09

Provide value of inhibition for this record tested with Nuclear receptor coactivator 1 (Homo sapiens): CC(C)(C)c1ccc(-c2cn(-c3ccc(Br)cc3)c3[n+]2CCCS3)cc1 52.1

Provide value of inhibition for this record tested with Nuclear receptor coactivator 1 (Homo sapiens): COc1cc(Cn2c3ccc(NC(=O)CCc4ccc(O)cc4)cc3c(=O)n2C)ccc1F 31.5

Provide value of inhibition for this record tested with Nuclear receptor coactivator 1 (Homo sapiens): CCCCC(=O)NC(c1ccc(C(C)C)cc1)c1ccc2cccnc2c1O (centres undefined) 58.2

Provide value of inhibition for this record tested with Nuclear receptor coactivator 1 (Homo sapiens): O=C(NCc1ccccc1)c1cccc(NC(=O)c2ccco2)c1 26.9

Provide value of inhibition for this record tested with Nuclear receptor coactivator 1 (Homo sapiens): NC(=O)c1cc(Sc2ccccc2)nc2ccccc12 34.4

Provide value of inhibition for this record tested with Nuclear receptor coactivator 1 (Homo sapiens): CC(=O)N(/N=C1\Sc2ccccc2C1=O)c1ccc(C)cc1C 2.03

Provide value of inhibition for this record tested with Nuclear receptor coactivator 1 (Homo sapiens): CCOC(=O)c1cccc2c1-c1ccccc1/C2=N/O 46.5

Provide value of inhibition for this record tested with Nuclear receptor coactivator 1 (Homo sapiens): COc1cccc2c1OC1(C)CC2NC(=O)N1c1cccc(C(=O)Nc2ccc3c(c2)OCCO3)c1 (centres undefined) -28.6

Provide value of inhibition for this record tested with Nuclear receptor coactivator 1 (Homo sapiens): O=C(CSc1nc(-c2cccs2)cc(C(F)(F)F)n1)Nc1cc(OCC(F)(F)C(F)F)cc([N+](=O)[O-])c1 17.1

Provide value of inhibition for this record tested with Nuclear receptor coactivator 1 (Homo sapiens): c1ccc(CC2CCN(c3ncnc4sccc34)CC2)cc1 -13.8

Provide value of inhibition for this record tested with Nuclear receptor coactivator 1 (Homo sapiens): COc1ccc(O)c(/C=N/NC(=O)c2c(C)nnn2-c2nonc2N)c1 14.4

Provide value of inhibition for this record tested with Nuclear receptor coactivator 1 (Homo sapiens): CCOC(=O)N1CCN(C2=Nc3cccc4cccc2c34)CC1 -13.8

Provide value of inhibition for this record tested with Nuclear receptor coactivator 1 (Homo sapiens): COc1ccc2c(=O)cc(-c3ccncc3)oc2c1OC 43.9

Provide value of inhibition for this record tested with Nuclear receptor coactivator 1 (Homo sapiens): CC(C)CC(=O)/C(=C\c1ccc(Cl)cc1Cl)n1cncn1 14.1

Provide value of inhibition for this record tested with Nuclear receptor coactivator 1 (Homo sapiens): COc1ccccc1C(=O)Nc1nc2ccccc2[nH]1 58.5

Provide value of inhibition for this record tested with Nuclear receptor coactivator 1 (Homo sapiens): Cc1cc(C)nc(SCc2ccc(C(=O)N/N=C/c3cccc(O)c3O)cc2)n1 27.1

Provide value of inhibition for this record tested with Nuclear receptor coactivator 1 (Homo sapiens): NC(=O)c1sc2nc3c(c(-c4cccs4)c2c1N)CCCCC3 77.6

Provide value of inhibition for this record tested with Nuclear receptor coactivator 1 (Homo sapiens): CCCCCCCCCn1c2c(c(=N)c3c1CCC3)CCCC2 65.6

Provide value of inhibition for this record tested with Nuclear receptor coactivator 1 (Homo sapiens): COc1ccccc1CNC(=O)Cn1nnnc1CN(C)C(C)C -0.61

Provide value of inhibition for this record tested with Nuclear receptor coactivator 1 (Homo sapiens): CN(Cc1ccccc1)c1ncnc(N)c1[N+](=O)[O-] 38.4

Provide value of inhibition for this record tested with Nuclear receptor coactivator 1 (Homo sapiens): CCOc1cccc(/C=N/NC(=S)Nc2ccccc2[N+](=O)[O-])c1O 44.9

Provide value of inhibition for this record tested with Nuclear receptor coactivator 1 (Homo sapiens): COC(=O)c1cc(C)nc2c1C(=O)C(=O)C=C2N1CCOCC1 -43.5

Provide value of inhibition for this record tested with Nuclear receptor coactivator 1 (Homo sapiens): COc1cc(C(=O)N/N=C(\c2ccccc2)c2ccccn2)cc(OC)c1OC 28.5

Provide value of inhibition for this record tested with Nuclear receptor coactivator 1 (Homo sapiens): CC#CC[N+](C)(C)CCCCCCCCCCCC 22.1

Provide value of inhibition for this record tested with Nuclear receptor coactivator 1 (Homo sapiens): Cc1ccc2nc(NC(=O)CCCC(=O)O)sc2c1 45.4

Provide value of inhibition for this record tested with Nuclear receptor coactivator 1 (Homo sapiens): Cc1cc(S(=O)(=O)c2cc3ccc(O)c(C)c3oc2=O)ccc1F -24

Provide value of inhibition for this record tested with Nuclear receptor coactivator 1 (Homo sapiens): Cc1csc(-c2cc(C(=O)NCc3cc(C(F)(F)F)cc(C(F)(F)F)c3)n[nH]2)c1 20.5

Provide value of inhibition for this record tested with Nuclear receptor coactivator 1 (Homo sapiens): COCCN(C(=O)C1=COCCO1)c1c(N)n(Cc2ccccc2)c(=O)[nH]c1=O -12.3

Provide value of inhibition for this record tested with Nuclear receptor coactivator 1 (Homo sapiens): Cc1c2ccncc2cc2c1[nH]c1ccccc12 48.4

Provide value of inhibition for this record tested with Nuclear receptor coactivator 1 (Homo sapiens): NC1=C(Br)C(=O)c2ncccc2C1=O 49.1

Provide value of inhibition for this record tested with Nuclear receptor coactivator 1 (Homo sapiens): COC(=O)c1c(C)oc2ccc(N(C(=O)c3ccncc3)S(=O)(=O)c3ccc(C)cc3C)cc12 -7

Provide value of inhibition for this record tested with Nuclear receptor coactivator 1 (Homo sapiens): Cc1ccccc1-n1nc(C)c2c1N=C1C(Cl)=CC(Cl)=CN1C2c1ccc(C(=O)O)cc1 (centres undefined) -9.32

Provide value of inhibition for this record tested with Nuclear receptor coactivator 1 (Homo sapiens): COc1ccc(NC(=O)/C(C#N)=C\c2cc(C)n(-c3ccc4c(c3)OCO4)c2C)cc1 -34.8

Provide value of inhibition for this record tested with Nuclear receptor coactivator 1 (Homo sapiens): S=C(NCCCCN(Cc1ccc(Cl)cc1)c1ccc(Br)cn1)NCCCc1cnc[nH]1 76.5

Provide value of inhibition for this record tested with Nuclear receptor coactivator 1 (Homo sapiens): CC(C)(C)C(=O)Nc1ccc(N=Nc2ccccc2)cc1 -19.6
